- SYSTEM: SUMO-1 (Homo sapiens)
- Construct: The pet19b His-TEV-SUMO-1 (18-97) construct was over-expressed; His-TEV (N, cleaved yes); made in house; host or cells: E. coli Rosetta 2
- Sequence (P63165 18-97, species assumed): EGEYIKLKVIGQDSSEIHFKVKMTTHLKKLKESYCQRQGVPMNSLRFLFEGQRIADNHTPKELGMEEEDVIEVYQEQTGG
- Format: binding
Where a SMILES comes first, the peptide text is derived from it. The star is where a group is joined. 5FAM = O=C1OC2(c3ccc(O)cc3Oc3cc(O)ccc32)c2ccc(C(=O)*)cc21; AEEA = NCCOCCOCC(=O)O
METRIC: Experimental competition (ΔΔG on mutation of the residue to alanine)

Query: Requested field: Experimental competition (ΔΔG on mutation of the residue to alanine). Item: CC[C@H](C)[C@H](NC(=O)[C@H](C)NC(=O)[C@H](CC(N)=O)NC(=O)[C@H](CC(=O)O)NC(=O)COCCOCCNC(=O)c1ccc2c(c1)C(=O)OC21c2ccc(O)cc2Oc2cc(O)ccc21)C(=O)N[C@@H](CCC(=O)O)C(=O)N[C@H](C(=O)N[C@H](C(=O)N[C@H](C(=O)N[C@H](C(=O)N[C@@H](Cc1c[nH]c2ccccc12)C(=O)N[C@@H](CCC(=O)O)C(=O)N[C@@H](CCCCN)C(=O)N[C@@H](CCCCN)C(N)=O)C(C)C)[C@@H](C)CC)[C@@H](C)CC)C(C)C [FAM-E2707A SIM] ({5FAM-AEEA}-DNAIEVIIVWEKK-NH2)
Response: 1.7
